// provenance: patent US20230159468A1

test: Solubility studies in pH buffer at 37° C. with HPLC analysis; assay type: physicochemical; conditions: pH buffer, 37 °C, pH 7.26, aqueous buffer, thermodynamic from solid, starting pH 7.26 buffer, 1 hr, single experiments, read-out: Solubility (mg/mL) 1 hr
readout-type: solubility at 1 h (mg/mL)
Express it in mg/mL; write the number only.

Note to self: solubility at 1 h recorded for CCCCc1nc2cc(/C=C/C(=O)NO)ccc2n1CCN(CC)CC was 0.14

###

experiment: Solubility in solvent mixture of isopropyl alcohol and water; assay type: physicochemical; conditions: organic solvent or mixture, isopropyl alcohol:water about 8:1 (v/v), about 58° C.
readout-type: solubility

Note to self: solubility recorded for CCCCc1nc2cc(/C=C/C(=O)NO)ccc2n1CCN(CC)CC [pracinostat diHCl] was ~82.6 mg/mL
